tested on: CCRF-CEM; test: NCI tumour cell line growth inhibition, 48 h
Activity calls are given as the source filed them. Rule as the data show it: active = GI50 up to about 1.1 µM and inactive = higher. *1 amine or outer side, *2 acyl side, *3 side chain or, on linkers, in order; H or OH if unused. Where a SMILES comes first, the peptide text is derived from it. Bridges are numbered along the chain shown (N, C = ends). Roman numbers before positions name the chains, in order. [ ]: non-standard residue; d: D form. Actinocin(1to9) = Cc1c2oc3c(C)ccc(C(=O)[*:2])c3nc-2c(C(=O)[*:1])c(N)c1=O; NMeV = CN[CH](C(=O)O)C(C)C; Sar = CNCC(=O)O
// allowed return values: y = active, n = inactive

Take a look at these entries with their results.
O=C(O)c1ccccc1C1c2ccc(Cl)cc2Oc2cc(Cl)ccc21 = n
CC(Br)C(=O)NC(CO)C(=O)O (stereo not drawn) = n
Cc1ccc(S(=O)(=O)NN=C2CCCCCCCCCCC2)cc1 = n
CN(C)C(=S)N=C(Nc1ccccc1)Nc1ccccc1 = n
COc1ccc(CC2NC(=O)C(NC(=O)c3c4nc5c(C(=O)NC6C(=O)NC(Cc7ccc(OC)cc7)C(=O)N7CCCC7C(=O)N(C)CC(=O)N(C)C(C(C)C)C(=O)OC6C)ccc(C)c5oc-4c(C)c(=O)c3N)C(C)OC(=O)C(C(C)C)N(C)C(=O)CN(C)C(=O)C3CCCN3C2=O)cc1 (stereo not drawn) (I: TY(Me)P[Sar][NMeV] / II: TY(Me)P[Sar][NMeV]; ester I:1-I:C, II:1-II:C; linker I:N-II:N via Actinocin(1to9); configuration not given here) = y

## Task Could you kindly confirm the outcome this assay logged for COc1ccc2[nH]c3c(C)c4ccnc(NCCCN(C)CCCNc5ccc6ncn7c8ccccc8c(=O)c5c67)c4c(C)c3c2c1 ?
## Result y

## Task Could you kindly confirm the outcome this assay logged for COC(=O)[C@@H]1c2cc3c(c(O)c2[C@@H](OC2OC(C)C(OC)C(C)(OC)C2OC)C[C@]1(C)O)C(=O)c1c(O)cc2c(c1C3=O)O[C@H]1O[C@]2(C)[C@H](O)[C@@H](N(C)C)[C@@H]1O (stereo partly drawn) ?
## Result y

## Task Could you kindly confirm the outcome this assay logged for O=C(O)c1cccc(CN2CCCCC2)c1 ?
## Result n

###

system: SK-MEL-28; assay: NCI tumour cell line growth inhibition, 48 h
Active and inactive are the calls of the source. No stated cut-off is given here; in the data, active = GI50 up to about 1.1 µM and inactive = higher.
ENDPOINT_LABEL: GI50

O=C1c2cccc(NCCCNCCO)c2C(=O)c2cccc(NCCCNCCO)c21 = 1.96 µM (inactive)
O=C(O)C(Cc1ccccc1)Cc1ccccc1 = > 100 µM (inactive)
COC1=CC(=O)NCCN1 = > 100 µM (inactive)

Note to self: GI50 recorded for CCOC(=O)CCC(NC(=O)c1ccc(/N=C/c2nc3ccccc3nc2-c2ccccc2)cc1)C(=O)OCC (stereo unspecified) was > 100 µM (inactive)

###

test system: DMS-273; test: NCI tumour cell line growth inhibition, 48 h
Activity calls are given as the source filed them. Rule as the data show it: active = GI50 up to about 1.1 µM and inactive = higher.
ENDPOINT_LABEL: GI50

Here is how some compounds turned out for GI50.
COc1cc(/C=C2/C(=O)N(C(=O)OC(C)C)C(Cc3cc(OC)c(OC)c(C)c3OC)C(=O)N2Cc2ccccc2)c(OC)c(C)c1OC (stereo not given) = 14 µM (inactive)
Nc1ccn(C2OC(COC(=O)C34CC5CC(CC(C5)C3)C4)C(O)C2O)c(=O)n1 (stereo not given) = > 100 µM (inactive)
O=C(O)c1ccccc1C1c2ccc(Cl)cc2Oc2cc(Cl)ccc21 = > 100 µM (inactive)

Note to self: GI50 recorded for c1ccc(NC[Si]23OCCN(CCO2)CCO3)cc1 was > 100 µM (inactive)

Note to self: GI50 recorded for C=C(Nc1ccc(OC)cc1OC)C(=O)Cc1cccc[n+]1[O-] was > 100 µM (inactive)

Note to self: GI50 recorded for O=S1(=O)CCN(c2ccccc2CC(c2c[nH]c3ccccc23)c2c[nH]c3ccccc23)CC1 was 8.63 µM (inactive)

Note to self: GI50 recorded for O=C1C(=O)N(c2ccc(Cl)cc2Cl)C(=O)C(=O)C1c1nc2ccccc2s1 was > 100 µM (inactive)

Note to self: GI50 recorded for Cc1ccc(OCC(=O)N2N=C(c3ccccc3)CC2(O)c2ccccc2)cc1 (stereo not given) was 20.8 µM (inactive)

Note to self: GI50 recorded for C/C(=C/c1c(C)[nH]c(=O)[nH]c1=O)C(=O)O was > 1370 µM (inactive)

Note to self: GI50 recorded for COc1cc([C@@H]2c3cc4c(cc3[C@@H](NCc3ccccc3)C3COC(=O)[C@@H]32)OCO4)cc(OC)c1O (stereo not given in full) was 1.68 µM (inactive)

###

Measured GI50 accompanies every entry in the list below.
tested on: OVCAR-3; experiment: NCI tumour cell line growth inhibition, 48 h
Calls of active or inactive are those of the source. Cut-off read from the data, not from the text of the source: active = GI50 up to about 1.1 µM and inactive = higher.

Here is how some molecules turned out for GI50.
COc1ccc(-c2c3c([nH]c(=S)c2C#N)CC(C)(C)CC3=O)cc1 = > 100 µM (inactive)
CC(C)(C)c1cc2c(O)c(c1)Cc1cc(C(C#N)(Cc3ccc4ccccc4c3)Cc3ccc4ccccc4c3)cc(c1O)Cc1cc(C(C)(C)C)cc(c1O)Cc1cc(C(C#N)(Cc3ccc4ccccc4c3)Cc3ccc4ccccc4c3)cc(c1O)C2 = > 100 µM (inactive)
O=C1OC(c2ccc(O)cc2)(c2ccc(O)cc2)c2ccc(Cl)c3cccc1c23.O=C1OC(c2ccc(O)cc2)(c2ccc(O)cc2)c2cccc3c(Cl)ccc1c23 = 11.5 µM (inactive)

Note to self: GI50 recorded for Oc1ccccc1C1C=C(c2ccccc2)NC(N2CCCCC2)=C1c1nc2ccccc2[nH]1 (centres undefined) was 14.6 µM (inactive)

###

tested on: UACC-62; assay: NCI tumour cell line growth inhibition, 48 h
Calls of active or inactive are those of the source. No stated cut-off is given here; in the data, active = GI50 up to about 1.1 µM and inactive = higher.
ENDPOINT_LABEL: GI50

Here is how some compounds turned out for GI50.
CC1C(c2ccc(Cl)cc2)c2cc3c(cc2OC1N1CCOCC1)OCO3 (stereo unspecified) = 74 µM (inactive)
COc1cc(N(CCC#N)CCC#N)ccc1C(/N=N/c1ccccc1C)=N\NC(=O)c1ccc(C)cc1 = 43.4 µM (inactive)
CO[C@H](C(=O)O[C@H]1C(=O)N2CCC3CCC1C32C)c1ccccc1 (stereo partly specified) = > 100 µM (inactive)

Proceed to the following item.
Note to self: GI50 recorded for N#CN=C(N(Cc1ccccc1)Cc1ccccc1)N(Cc1ccccc1)Cc1ccccc1 was 6.32 µM (inactive)

###

system: OVCAR-3; assay: NCI tumour cell line growth inhibition, 48 h
Activity calls are given as the source filed them. Rule as the data show it: active = GI50 up to about 1.1 µM and inactive = higher.
// allowed return values: true for active, false for inactive

Take a look at these entries with their results.
CCOP(=O)(OCC)/C(C#N)=C/c1cc(O)ccc1O = false
N#CC(O)CCOCc1ccccc1 (stereo not given) = false

## Task Could you kindly confirm the outcome this assay logged for O=C(O)C1CC2C3CCC2C1C3=O (stereo not given) ?
## Result false

## Task Could you kindly confirm the outcome this assay logged for COc1ccc2[nH]c3c(C)c4ccnc(NCCCN(C)CCCNc5ccc6ncn7c8ccccc8c(=O)c5c67)c4c(C)c3c2c1 ?
## Result false

## Task Could you kindly confirm the outcome this assay logged for COc1ccc(C(=O)O)c(Cc2cccc3ccccc23)c1 ?
## Result false

## Task Could you kindly confirm the outcome this assay logged for CC/C=C\C/C=C\C/C=C\CCCCCCCC(=O)OCC(O)CO (stereo not given) ?
## Result false

###

test system: SF-268; assay: NCI tumour cell line growth inhibition, 48 h
Activity calls are given as the source filed them. Rule as the data show it: active = GI50 up to about 1.1 µM and inactive = higher. *1 amine or outer side, *2 acyl side, *3 side chain or, on linkers, in order; H or OH if unused. Where a SMILES comes first, the peptide text is derived from it. Bridges are numbered along the chain shown (N, C = ends). Roman numbers before positions name the chains, in order. [ ]: non-standard residue; d: D form. Actinocin(1to9) = Cc1c2oc3c(C)ccc(C(=O)[*:2])c3nc-2c(C(=O)[*:1])c(N)c1=O; NMeV = CN[CH](C(=O)O)C(C)C; Sar = CNCC(=O)O
// allowed return values: active, inactive

CC(C)(C)c1ccc(-n2c3nc(=O)n(-c4ccccc4CO)c(=O)c-3cc3ccccc32)cc1 = inactive
CC1/C(=N/O)CC(c2ccccc2)N(N=O)C1c1ccccc1 (stereo unspecified) = inactive
O=P1(C(O)/C=C/c2ccccc2)N(Cc2ccccc2)[C@@H]2CCCC[C@H]2N1Cc1ccccc1 (stereo partly specified) = inactive
O=C1/C(=C/c2cccs2)N=C(c2ccccc2)N1C1Nc2cc3c(cc2S1)NC(N1C(=O)/C(=C/c2cccs2)N=C1c1ccccc1)S3 (stereo unspecified) = inactive
COc1c(-c2nc3ccc(N4CCN(C)CC4)nc3[nH]2)cc(OC)c2c1nc(CCl)n2C = inactive
COc1ccc(CC2NC(=O)C(NC(=O)c3c4nc5c(C(=O)NC6C(=O)NC(Cc7ccc(OC)cc7)C(=O)N7CCCC7C(=O)N(C)CC(=O)N(C)C(C(C)C)C(=O)OC6C)ccc(C)c5oc-4c(C)c(=O)c3N)C(C)OC(=O)C(C(C)C)N(C)C(=O)CN(C)C(=O)C3CCCN3C2=O)cc1 (stereo unspecified) (I: TY(Me)P[Sar][NMeV] / II: TY(Me)P[Sar][NMeV]; ester I:1-I:C, II:1-II:C; linker I:N-II:N via Actinocin(1to9); configuration not given here) = active
O=c1c2ccccc2[nH]c(=S)n1-c1ccc(/N=N/c2cccc3cc(O)ccc23)cc1 = inactive
O=C(CSCC(=O)N/N=C/c1ccccc1)N/N=C\c1ccccc1 = inactive

## Task Could you kindly confirm the outcome this assay logged for O=C1C(=O)N(c2ccc(Cl)cc2Cl)C(=O)C(=O)C1c1nc2ccccc2s1 ?
## Result inactive

## Task Could you kindly confirm the outcome this assay logged for COc1cc(CNNC(N)=S)cc(OC)c1OC ?
## Result inactive

## Task Could you kindly confirm the outcome this assay logged for O=C(O)c1ccccc1-c1ccccc1C(=O)Nc1ccc2c(c1)Cc1cc(F)ccc1-2 ?
## Result inactive

## Task Could you kindly confirm the outcome this assay logged for O=C(c1cccs1)N(C(=S)N1CCN(c2ccccc2)CC1)c1ccccc1 ?
## Result inactive

## Task Could you kindly confirm the outcome this assay logged for CCOP1(=O)C=C(C)C(=C(Cl)Cl)C(C)=C1 (stereo unspecified) ?
## Result inactive

## Task Could you kindly confirm the outcome this assay logged for CCOC(=O)C(Cc1cn(S(=O)(=O)c2ccc(C)cc2)cn1)P(=O)(OCC)OCC (stereo unspecified) ?
## Result inactive

## Task Could you kindly confirm the outcome this assay logged for Cc1ccc(C(=O)Cn2c(C(=O)/C=C/c3cccs3)nc3ccccc32)cc1 ?
## Result inactive

## Task Could you kindly confirm the outcome this assay logged for COC(=O)c1c(O)ccc2c1c1c(n2Cc2ccccn2)C(=O)c2ccccc2C1=O ?
## Result inactive
